Source listed as PubChem BioAssay AID624304.

Measured inhibition, listed per entry for reference.
- MEASUREMENT_DESCRIPTION: gst-4 reporter inhibition in live C. elegans – whole organism, uHTS, GFP/RFP fluorescence ratio, strain VP596, SKN-1 inhibitor project, primary screen (AID 624304)
- CONDITION_INFO: C. elegans VP596 Pgst-4::GFP/RFP ratio, acrylamide-induced, 24 h; at 21.8 µM; hits give high values
The whole screen tested about 360,000 compounds, of which about 1,800 (0.5%) were called active. Shown is part of a subset that was picked to be rich in actives.
EXPERIMENTAL_ENDPOINT: inhibition (%)

{"MOLECULE": "CC1CCN(c2oc(-c3ccccc3F)nc2C#N)CC1", "EXPERIMENTAL_ENDPOINT": "inhibition", "MEASUREMENT": 35.4}
{"MOLECULE": "Cc1cc(N)n(-c2ccc(S(=O)(=O)N3CCCC3)cc2[N+](=O)[O-])n1", "EXPERIMENTAL_ENDPOINT": "inhibition", "MEASUREMENT": -11.2}
{"MOLECULE": "Cc1cc2c(cc1S(=O)(=O)NCc1ccc(Cl)cc1)OCC(=O)N2", "EXPERIMENTAL_ENDPOINT": "inhibition", "MEASUREMENT": -19.4}
{"MOLECULE": "COc1ccc(C)cc1NC(=O)c1[nH]c(C)c(C(C)=O)c1C", "EXPERIMENTAL_ENDPOINT": "inhibition", "MEASUREMENT": -2.27}
{"MOLECULE": "COc1ccc(CCC(=O)OCC(=O)Nc2ccc(C)c(S(=O)(=O)N(C)C)c2)cc1", "EXPERIMENTAL_ENDPOINT": "inhibition", "MEASUREMENT": -9.73}
{"MOLECULE": "CN(C(=O)c1ccccc1)c1nccnc1C#N", "EXPERIMENTAL_ENDPOINT": "inhibition", "MEASUREMENT": -2.1}
{"MOLECULE": "N#Cc1nc(-c2cccc3ccccc23)oc1N", "EXPERIMENTAL_ENDPOINT": "inhibition", "MEASUREMENT": 16.8}
{"MOLECULE": "CCOC(=O)C1=NNC2(c3ccc(Cl)cc3)C(=O)N(c3cc(C)cc(C)c3)C(=O)C12 (stereo not given)", "EXPERIMENTAL_ENDPOINT": "inhibition", "MEASUREMENT": 14.5}
{"MOLECULE": "Cc1nccn1-c1ccc(NC(=O)[C@H]2O[C@@H](n3ccc(=O)[nH]c3=O)[C@H](O)[C@@H]2O)cc1", "EXPERIMENTAL_ENDPOINT": "inhibition", "MEASUREMENT": 1.64}
{"MOLECULE": "C[C@H]1CN([C@@H](C)CO)C(=O)CCCn2cc(nn2)CO[C@@H]1CN(C)C(=O)Nc1ccccc1", "EXPERIMENTAL_ENDPOINT": "inhibition", "MEASUREMENT": 1.2}

====

- MEASUREMENT_DESCRIPTION: gst-4 reporter inhibition in live C. elegans – whole organism, uHTS, GFP/RFP fluorescence ratio, strain VP596, SKN-1 inhibitor project, primary screen (AID 624304)
- CONDITION_INFO: C. elegans VP596 Pgst-4::GFP/RFP ratio, acrylamide-induced, 24 h; at 21.8 µM; hits give high values
About 1,800 (0.5%) of roughly 360,000 compounds were called active. This is one part of a sample in which actives are shown more often than they occur.
Parameter: inhibition. Scope: all listed entries.

{"MOLECULE": "O=C(NCCC1=CCCCC1)c1ccc(Cl)c([N+](=O)[O-])c1", "inhibition / %": 7.85}
{"MOLECULE": "CCOc1ccc(-c2nnc(-c3ccco3)o2)cc1", "inhibition / %": 58.1}
{"MOLECULE": "Cc1cccc(-c2nc3c(c(SCC(=O)N4CCOCC4)n2)CCCC3)c1", "inhibition / %": 37.9}
{"MOLECULE": "CCCCOc1ccc(-c2nnc(-c3ccco3)o2)cc1", "inhibition / %": 64.9}
{"MOLECULE": "Cn1c(SCC(=O)N2CCOCC2)nnc1-c1ccc2ncccc2c1", "inhibition / %": 3.82}
{"MOLECULE": "O=C(CSc1nnc(-c2ccco2)o1)NCC(=O)c1ccccc1", "inhibition / %": -0.628}
{"MOLECULE": "CCCOc1ccc(-c2c(C(=O)N/N=C/c3ccco3)nnn2-c2nonc2N)cc1", "inhibition / %": 3.6}
{"MOLECULE": "CCCCSc1nnc(-c2ccc(C)cc2)o1", "inhibition / %": 1.11}
{"MOLECULE": "N#Cc1c(C(F)(F)F)cc(-c2ccccc2)nc1SCC(=O)N1CCOCC1", "inhibition / %": 2.8}
{"MOLECULE": "CCOc1ccc(NC(=O)N(CCC(C)C)C(C)c2ccco2)cc1 (stereo unspecified)", "inhibition / %": -11.7}
{"MOLECULE": "CSc1nnc(CNC(=O)c2ccccc2)n1-c1ccc(F)cc1", "inhibition / %": -6.87}
